Test system: HIV
Assay: MT4 assay: antiviral HIV activity (cell protection, cell titer glo readout at 96 hours)
Type: cell-based
Details: Human immunodeficiency virus 1, MT4, 96 h, MT4 cells, cell titer glo readout at 96 hours, 10 point dose response; read-out: HIV MT4 Assay IC50
PROPERTY MEASURED: IC50 (nM)
One number for each entry, in nM.

Solved entries:
molecule=Cc1nc2c(cc(C(=O)N3CCC(c4cccc(C#N)c4)CC3)n2C)c(-c2cc(F)c3c(c2C)CCCO3)c1[C@H](OC(C)(C)C)C(=O)O target_or_system=HIV property_measured=IC50 endpoint_value=4.7
molecule="Cc1nc2c(cc(-c3ccnc(C#CC4(N)CCCCC4)c3)n2C)c(-c2cc(F)c3c(c2C)CCCO3)c1[C@H](OC(C)(C)C)C(=O)O (atropisomer, axis not shown)" target_or_system=HIV property_measured=IC50 endpoint_value=39.8
molecule=Cc1nc2c(cc(C(=O)NCCS(C)(=O)=O)n2C)c(-c2cc(F)c3c(c2C)CCCO3)c1[C@H](OC(C)(C)C)C(=O)O target_or_system=HIV property_measured=IC50 endpoint_value=4140
molecule=Cc1nc2c(cc(C(=O)NCCC3CCOCC3)n2C)c(-c2cc(F)c3c(c2C)CCCO3)c1[C@H](OC(C)(C)C)C(=O)O target_or_system=HIV property_measured=IC50 endpoint_value=21.2
molecule="Cc1nc2c(cc(-c3ccnc(-c4ccc(O)c(N)c4)c3)n2C)c(-c2cc(F)c3c(c2C)CCCO3)c1[C@H](OC(C)(C)C)C(=O)O (atropisomer, axis not shown)" target_or_system=HIV property_measured=IC50 endpoint_value=114
molecule="Cc1nc2c(cc(-c3ccnc(-c4ccc5c(c4)CN(C4COC4)CC5)c3)n2C)c(-c2cc(F)c3c(c2C)CCCO3)c1[C@H](OC(C)(C)C)C(=O)O (atropisomer, axis not shown)" target_or_system=HIV property_measured=IC50 endpoint_value=4.4
molecule="Cc1nc2c(cc(-c3ccnc(N4C[C@@H]5CC[C@H]4CN(C4COC4)C5)c3)n2C)c(-c2cc(F)c3c(c2C)CCCO3)c1[C@H](OC(C)(C)C)C(=O)O (atropisomer, axis not shown)" target_or_system=HIV property_measured=IC50 endpoint_value=11.6
molecule=Cc1nc2c(cc(-c3ccnc(-c4ccc5c(cnn5C5COC5)c4)c3)n2C)c(-c2cc(F)c3c(c2C)CCCO3)c1[C@H](OC(C)(C)C)C(=O)O target_or_system=HIV property_measured=IC50 endpoint_value=2.4

Below are 3 molecules. Give each one its IC50.
1. Cc1nc2c(cc(-c3csc(N4C[C@@H](C)O[C@@H](C)C4)n3)n2C)c(-c2cc(F)c3c(c2C)CCCO3)c1[C@H](OC(C)(C)C)C(=O)O (racemic)
2. Cc1nc2c(cc(-c3ccnc(-c4ccc5c(cnn5C)c4)c3)n2C)c(-c2ccc3c(c2C)OCCO3)c1[C@H](OC(C)(C)C)C(=O)O
3. Cc1nc2c(cc(-c3ccnc(OC4CCN(Cc5ccccc5)CC4)c3)n2C)c(-c2cc(F)c3c(c2C)CCCO3)c1[C@H](OC(C)(C)C)C(=O)O

1. 13.4
2. 2.7
3. 100
